target: PI3K-α (Homo sapiens); assay: PI3K-alpha fluorescence polarization assay; settings: read-out: IC50 PI3Kα
Sequence (P42336 whole entry, species assumed): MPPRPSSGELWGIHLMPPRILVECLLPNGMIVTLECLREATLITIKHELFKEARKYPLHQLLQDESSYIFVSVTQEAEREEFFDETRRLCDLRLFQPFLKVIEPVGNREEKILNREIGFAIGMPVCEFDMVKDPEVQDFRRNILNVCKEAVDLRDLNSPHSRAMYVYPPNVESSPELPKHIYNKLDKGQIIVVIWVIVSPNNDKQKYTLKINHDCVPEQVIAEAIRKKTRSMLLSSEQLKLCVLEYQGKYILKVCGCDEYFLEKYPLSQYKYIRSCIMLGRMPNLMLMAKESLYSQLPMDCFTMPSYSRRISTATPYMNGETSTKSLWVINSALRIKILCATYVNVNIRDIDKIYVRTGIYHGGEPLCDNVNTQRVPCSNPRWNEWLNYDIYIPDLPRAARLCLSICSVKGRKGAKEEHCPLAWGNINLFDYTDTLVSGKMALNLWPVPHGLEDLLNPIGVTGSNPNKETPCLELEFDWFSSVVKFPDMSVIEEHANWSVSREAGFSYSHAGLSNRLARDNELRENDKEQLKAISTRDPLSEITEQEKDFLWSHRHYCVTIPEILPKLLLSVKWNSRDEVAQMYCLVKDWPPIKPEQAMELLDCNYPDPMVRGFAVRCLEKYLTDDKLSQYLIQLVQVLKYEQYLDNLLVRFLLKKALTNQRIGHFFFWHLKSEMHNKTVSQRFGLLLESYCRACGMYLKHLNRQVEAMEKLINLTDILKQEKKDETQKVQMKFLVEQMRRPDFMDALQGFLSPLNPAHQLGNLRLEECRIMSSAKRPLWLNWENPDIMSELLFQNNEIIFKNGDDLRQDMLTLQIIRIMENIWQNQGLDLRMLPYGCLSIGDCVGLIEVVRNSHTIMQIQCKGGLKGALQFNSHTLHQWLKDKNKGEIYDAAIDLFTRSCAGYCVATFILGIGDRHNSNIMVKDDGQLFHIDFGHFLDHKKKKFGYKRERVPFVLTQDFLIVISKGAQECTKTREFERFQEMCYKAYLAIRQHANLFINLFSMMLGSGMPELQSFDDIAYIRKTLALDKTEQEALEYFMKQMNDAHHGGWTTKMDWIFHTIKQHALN
Sequence (P27986 whole entry partner, species assumed): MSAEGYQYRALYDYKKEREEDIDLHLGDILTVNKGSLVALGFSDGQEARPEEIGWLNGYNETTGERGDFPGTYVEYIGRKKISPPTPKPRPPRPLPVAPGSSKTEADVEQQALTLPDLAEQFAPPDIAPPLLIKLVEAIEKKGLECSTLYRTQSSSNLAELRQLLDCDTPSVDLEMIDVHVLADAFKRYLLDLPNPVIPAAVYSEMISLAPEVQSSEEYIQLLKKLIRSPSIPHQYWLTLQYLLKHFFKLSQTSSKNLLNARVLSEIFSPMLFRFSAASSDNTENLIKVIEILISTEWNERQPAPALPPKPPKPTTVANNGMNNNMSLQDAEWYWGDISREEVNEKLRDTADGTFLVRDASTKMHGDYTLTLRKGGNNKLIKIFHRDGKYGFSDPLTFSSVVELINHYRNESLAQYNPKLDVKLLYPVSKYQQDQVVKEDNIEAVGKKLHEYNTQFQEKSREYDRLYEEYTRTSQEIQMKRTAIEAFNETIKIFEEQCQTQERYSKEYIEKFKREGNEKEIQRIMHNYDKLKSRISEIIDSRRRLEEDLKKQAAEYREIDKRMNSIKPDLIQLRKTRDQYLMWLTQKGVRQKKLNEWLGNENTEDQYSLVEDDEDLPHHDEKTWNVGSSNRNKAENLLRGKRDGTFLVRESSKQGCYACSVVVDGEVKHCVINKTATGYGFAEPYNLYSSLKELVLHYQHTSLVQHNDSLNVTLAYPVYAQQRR
pIC50: −log10 of the molar value.
endpoint: pIC50

Known pIC50 results, listed for orientation:
{"chemical-structure": "CCCC1CCN(C(=O)c2ccc(NC(=O)Nc3ccc(-c4nc(N5CCOCC5)nc(N5CCN(C(=O)N(C)C)CC5)n4)cc3)cc2)CC1", "endpoint": "pIC50", "reported-measurement": 6.98}
{"chemical-structure": "O=C(Nc1ccncc1)Nc1ccc(-c2nc(N3CC4CCC(C3)O4)nc(N3CC4CCC(C3)O4)n2)cc1", "endpoint": "pIC50", "reported-measurement": 6.85}

P = CCc1nc(-c2ccc(NC(=O)Nc3ccc(C(=O)OC)cc3)cc2)nc(N2CCOCC2)n1
Q = CC(C)(C)OC(=O)CNC1CCN(c2nc(-c3ccc(NC(=O)Nc4ccncc4)cc3)nc(N3CC4CCC(C3)O4)n2)CC1
R = CN(C)CCCNC(=O)c1ccc(NC(=O)Nc2ccc(-c3nc(-c4cccs4)nc(N4CCOCC4)n3)cc2)cc1
S = CNc1nc(-c2ccc(NC(=O)Nc3cccnc3)cc2)nc(N2CC3CCC(C2)O3)n1
Enquiry: # sort list by recorded pIC50, greatest to least Please write the labels in the order that was asked for.
Return: R, P, S, Q
